Experiment: in vitro
Conditions: human, Cytotoxicity class by LC50
Observable: CC50

Entry under test: CC/C(=C(\c1ccccc1)c1ccc(OCCN(C)C)cc1)c1ccccc1 . Its CC50 was 10 to 50 µM

----------
Experiment: in vitro
Settings: human, Cytotoxicity class by LC50
Observable: CC50

Entry under test: CC/C(=C(\c1ccccc1)c1ccc(OCCN(C)C)cc1)c1ccccc1 . Its CC50 was 10 to 50 µM
